mass density: recorded values
Test: mn = molality of the nth substance listed, in mol/kg
Details: 298.15 K; 101 kPa; Liquid; m1 = 0.0001

{"Compound": "CC[N+](CC)(CC)CC.[I-] [tetraethylammonium iodide] + CO", "Units": "kg/m3", "mass density": 786.38}
{"Compound": "CC[N+](CC)(CC)CC.[I-] [tetraethylammonium iodide] + CC#N", "Units": "kg/m3", "mass density": 776.01}
{"Compound": "CC[N+](CC)(CC)CC.[I-] [tetraethylammonium iodide] + CC(C)=O", "Units": "kg/m3", "mass density": 783.81}
{"Compound": "CC[N+](CC)(CC)CC.[I-] [tetraethylammonium iodide] + O=[N+]([O-])c1ccccc1", "Units": "kg/m3", "mass density": 1198.91}

The measurements presented in this section are drawn from the NIST ThermoML archive (doi:10.1021/je900542y).
